- system.under.test: CepR (Burkholderia cenocepacia, UniProt B4EMD0)
- Sequence (B4EMD0 1-239): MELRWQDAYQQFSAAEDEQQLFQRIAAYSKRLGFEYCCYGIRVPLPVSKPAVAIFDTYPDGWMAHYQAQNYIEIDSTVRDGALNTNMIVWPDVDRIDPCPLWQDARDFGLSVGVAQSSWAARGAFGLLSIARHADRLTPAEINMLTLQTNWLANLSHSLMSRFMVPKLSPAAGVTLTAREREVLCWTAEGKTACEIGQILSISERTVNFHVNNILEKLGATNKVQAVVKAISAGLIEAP
- test.protocol: CepR antagonism in E. coli β-galactosidase reporter (Ec-reporter), competition against C8-AHL
- Type: cell-based, B. cenocepacia
- test.parameters: Ec-reporter
reported.endpoint: CepR antagonism in words

{"columns": ["structure.as.smiles", "assay.value"],
 "data": [
  ["O=C(Cc1ccccc1F)N[C@H]1CCOC1=O", "inactive as antagonists"],
  ["O=C(Cc1ccc(F)cc1)N[C@H]1CCOC1=O", "inactive as antagonists"],
  ["O=C(Cc1cccc(F)c1)N[C@H]1CCOC1=O", "inactive as antagonists"]
]}

====

- system.under.test: CepR (Burkholderia multivorans)
- Sequence (Q93PF7 1-239): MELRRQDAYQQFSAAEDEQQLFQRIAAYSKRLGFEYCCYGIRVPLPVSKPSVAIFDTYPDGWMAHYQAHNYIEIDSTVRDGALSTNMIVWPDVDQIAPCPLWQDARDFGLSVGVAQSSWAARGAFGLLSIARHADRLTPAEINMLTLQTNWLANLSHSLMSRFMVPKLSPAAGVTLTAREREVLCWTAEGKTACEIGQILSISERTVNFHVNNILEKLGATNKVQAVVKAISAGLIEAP
- test.protocol: CepR agonism in B. multivorans cepI::lacZ reporter (Bm-reporter)
- Assay type: cell-based
- test.parameters: Table S4, Bm-reporter; screening conc. 100 μM
reported.endpoint: Act% (%)
Numbers only here, please. The scale is %.

## Task Please provide the recorded Act% for O=C(CCC1CCCCC1)N[C@H]1CCOC1=O , tested on CepR (Burkholderia multivorans).
## Result 51

## Task Please provide the recorded Act% for CCCCCCCCCC(=O)CC(=O)N[C@H]1CCOC1=O [3’O-C12-AHL, reference compound] , tested on CepR (Burkholderia multivorans).
## Result 80

## Task Please provide the recorded Act% for O=C(CCc1ccc2c(c1)OCO2)N[C@H]1CCOC1=O , tested on CepR (Burkholderia multivorans).
## Result 84

## Task Please provide the recorded Act% for CCCOc1ccc(C(=O)N[C@H]2CCOC2=O)cc1 , tested on CepR (Burkholderia multivorans).
## Result 92

## Task Please provide the recorded Act% for O=C(Cc1cccc(I)c1)N[C@H]1CCOC1=O , tested on CepR (Burkholderia multivorans).
## Result 2.3

====

- system.under.test: CepR (Burkholderia cenocepacia)
- test.protocol: CepR agonism in E. coli β-galactosidase reporter (Ec-reporter) JLD271 [pJN105-cepR + pSC11-cepI]
- Assay type: cell-based, B. cenocepacia
- test.parameters: Table S2, Ec-reporter; screening conc. 100 μM
- Experimental: We began our study by screening the AHL library for CepR modulators using an E. coli-based two plasmid reporter system (Ec-reporter)[38]–[40]. […] Cells were grown for 4 h, OD600 was read, 50 μL aliquots from each well were permeabilized in 200 μL Z Buffer, and then 150 μL of this mixture used to measure the cleavage of 25 μL of 4 mg/mL CPRG in phosphate buffered saline (PBS) at 37 °C until positive control wells developed a deep red color (~30 min). […]
Is activation at 100 µM at least 50%? Then y. If not, n.

## Task Test whether the molecule O=C(CCc1ccc([N+](=O)[O-])cc1)N[C@H]1CCOC1=O records activation at 100 µM of 50% or higher.
## Result y

## Task Test whether the molecule CCCCCCCC(=O)N[C@H]1CCOC1=O [Compound C8-AHL, N-octanoyl L-homoserine lactone, reference compound] records activation at 100 µM of 50% or higher.
## Result y

## Task Test whether the molecule CCCCCCCS(=O)(=O)N[C@H]1CCOC1=O records activation at 100 µM of 50% or higher.
## Result n

## Task Test whether the molecule O=C(CCc1ccc(C(F)(F)F)cc1)N[C@H]1CCOC1=O records activation at 100 µM of 50% or higher.
## Result y

## Task Test whether the molecule O=C(CCc1ccc(I)cc1)N[C@H]1CCOC1=O records activation at 100 µM of 50% or higher.
## Result y

## Task Test whether the molecule O=C(CC1CCCC1)N[C@H]1CCOC1=O records activation at 100 µM of 50% or higher.
## Result n

## Task Test whether the molecule O=C(Cc1cccc(C(F)(F)F)c1)N[C@H]1CCOC1=O records activation at 100 µM of 50% or higher.
## Result n

// provenance: paper PMC6748986
